target: hCB1R (Homo sapiens)
Construct: host or cells: CHO
Sequence (P21554 whole entry): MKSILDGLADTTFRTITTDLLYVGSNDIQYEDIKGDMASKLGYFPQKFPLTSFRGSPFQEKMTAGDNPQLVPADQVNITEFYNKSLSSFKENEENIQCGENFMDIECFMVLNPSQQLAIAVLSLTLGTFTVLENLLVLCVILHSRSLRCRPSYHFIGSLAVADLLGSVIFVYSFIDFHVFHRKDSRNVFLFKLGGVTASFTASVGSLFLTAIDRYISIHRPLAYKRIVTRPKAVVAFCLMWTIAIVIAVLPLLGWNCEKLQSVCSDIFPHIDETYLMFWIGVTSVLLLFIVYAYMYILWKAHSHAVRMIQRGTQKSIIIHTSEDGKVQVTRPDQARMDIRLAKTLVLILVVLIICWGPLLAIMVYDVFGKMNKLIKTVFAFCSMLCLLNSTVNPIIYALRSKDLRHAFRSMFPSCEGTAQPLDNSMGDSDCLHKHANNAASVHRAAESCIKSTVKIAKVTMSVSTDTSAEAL
assay method text: cell-based
endpoint label: Emax ± SEM cAMP hCB1R

compound	endpoint label	reported result
CCCC(C)(C)c1ccc2c(c1)OC(C)(C)[C@@H]1CC=C(C)C[C@@H]21	Emax ± SEM cAMP hCB1R	37 ± 6
Cc1ccc2c(c1)Cc1c(C(=O)NN3CCCCC3)nn(-c3ccc(Cl)cc3Cl)c1-2	Emax ± SEM cAMP hCB1R	19 ± 5
CN1CCCC[C@@H]1Cn1cc(C(=O)c2cc([N+](=O)[O-])ccc2I)c2ccccc21 [(R)-AM1241]	Emax ± SEM cAMP hCB1R	54 ± 7

// for each compound in input: emit Emax ± SEM cAMP hCB1R
1. CN1CCCC[C@H]1Cn1cc(C(=O)c2cc([N+](=O)[O-])ccc2I)c2ccccc21 [(S)-AM1241]
2. CCCCCCC(C)(C)c1cc(OC)c(C2=C[C@H]3CC[C@]2(CO)C3(C)C)c(OC)c1

# output
["16 ± 2", "28 ± 8"]

---

target: hCB1R (Homo sapiens)
Construct: host or cells: CHO
assay method text: cell-based
assay setup: pEC50 ± SEM cAMP hCB1R
endpoint label: EC50 (nM)
One number for each entry, in nM.

# input Checklist item: EC50 tested on hCB1R (Homo sapiens), entry CCCCCCC(C)(C)c1cc(O)c2c(c1)OC(C)(C)[C@@H]1CC=C(CO)C[C@@H]21 , value?
# output 0.263

---

Provide the reported Emax cAMP mCB2R of each item.
target: mCB2R (Mus musculus)
assay method text: biochemical
Assay type: biochemical
Design: from tissue; host or cells: spleen of male C57BL/6J mice
Give bare numbers.

Worked examples follow.
compound	Emax cAMP mCB2R
CN1CCCCC1Cn1cc(C(=O)c2cc([N+](=O)[O-])ccc2I)c2ccccc21 (racemic) [(rac)-AM1241]	-6
CCCC(C)(C)c1ccc2c(c1)OC(C)(C)[C@@H]1CC=C(C)C[C@@H]21	95
CN1CCCC[C@H]1Cn1cc(C(=O)c2cc([N+](=O)[O-])ccc2I)c2ccccc21 [(S)-AM1241]	35

Dear colleague, could you please provide Emax cAMP mCB2R for the compounds listed below?
1. COc1ccc(C(=O)c2c(C)n(CCN3CCOCC3)c3cc(I)ccc23)cc1
2. CN1CCCC[C@@H]1Cn1cc(C(=O)c2cc([N+](=O)[O-])ccc2I)c2ccccc21 [(R)-AM1241]

# output
1: -65; 2: -22

---

target: N muscle-type (h) (Homo sapiens, UniProt P02708+P07510+P11230+Q07001)
Construct: CEREP (contract assay)
Sequence (P02708 21-457): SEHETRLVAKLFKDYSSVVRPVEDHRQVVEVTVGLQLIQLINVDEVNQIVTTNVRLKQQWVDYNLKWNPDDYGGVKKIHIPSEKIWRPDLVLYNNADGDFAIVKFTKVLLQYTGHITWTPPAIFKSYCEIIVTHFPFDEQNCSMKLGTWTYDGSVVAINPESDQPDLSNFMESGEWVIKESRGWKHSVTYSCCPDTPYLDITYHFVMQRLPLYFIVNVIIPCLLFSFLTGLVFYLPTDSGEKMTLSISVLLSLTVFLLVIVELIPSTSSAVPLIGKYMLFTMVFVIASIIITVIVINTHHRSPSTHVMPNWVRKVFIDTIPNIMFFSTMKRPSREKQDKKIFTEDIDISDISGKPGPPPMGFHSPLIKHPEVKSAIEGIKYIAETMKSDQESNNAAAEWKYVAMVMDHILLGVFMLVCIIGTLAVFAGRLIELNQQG
Sequence (P11230 24-501): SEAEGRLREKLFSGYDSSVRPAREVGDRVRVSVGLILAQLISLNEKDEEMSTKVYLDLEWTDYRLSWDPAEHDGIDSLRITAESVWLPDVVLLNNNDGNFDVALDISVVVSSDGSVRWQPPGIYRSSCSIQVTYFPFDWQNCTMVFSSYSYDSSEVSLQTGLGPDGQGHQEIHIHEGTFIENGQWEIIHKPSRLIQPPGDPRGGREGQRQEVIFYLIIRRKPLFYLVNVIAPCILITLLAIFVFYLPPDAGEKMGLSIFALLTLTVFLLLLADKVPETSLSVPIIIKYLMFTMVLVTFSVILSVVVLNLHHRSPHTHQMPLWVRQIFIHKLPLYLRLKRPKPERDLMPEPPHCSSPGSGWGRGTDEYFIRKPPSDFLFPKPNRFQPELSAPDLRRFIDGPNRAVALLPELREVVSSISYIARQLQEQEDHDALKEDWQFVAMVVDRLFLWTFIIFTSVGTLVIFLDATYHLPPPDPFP
Sequence (Q07001 22-517): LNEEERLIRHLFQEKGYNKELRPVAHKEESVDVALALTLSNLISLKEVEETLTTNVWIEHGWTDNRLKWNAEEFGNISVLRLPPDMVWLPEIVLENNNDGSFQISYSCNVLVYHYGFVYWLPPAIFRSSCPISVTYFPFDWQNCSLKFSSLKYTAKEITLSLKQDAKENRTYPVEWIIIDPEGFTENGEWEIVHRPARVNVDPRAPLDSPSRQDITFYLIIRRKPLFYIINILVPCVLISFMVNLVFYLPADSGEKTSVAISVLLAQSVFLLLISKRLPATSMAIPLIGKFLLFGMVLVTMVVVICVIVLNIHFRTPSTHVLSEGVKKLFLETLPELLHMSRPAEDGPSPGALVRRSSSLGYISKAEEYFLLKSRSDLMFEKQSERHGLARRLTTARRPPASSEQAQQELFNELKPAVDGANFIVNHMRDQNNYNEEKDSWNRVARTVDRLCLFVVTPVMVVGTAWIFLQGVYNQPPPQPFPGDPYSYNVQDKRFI
Sequence (P07510 23-517): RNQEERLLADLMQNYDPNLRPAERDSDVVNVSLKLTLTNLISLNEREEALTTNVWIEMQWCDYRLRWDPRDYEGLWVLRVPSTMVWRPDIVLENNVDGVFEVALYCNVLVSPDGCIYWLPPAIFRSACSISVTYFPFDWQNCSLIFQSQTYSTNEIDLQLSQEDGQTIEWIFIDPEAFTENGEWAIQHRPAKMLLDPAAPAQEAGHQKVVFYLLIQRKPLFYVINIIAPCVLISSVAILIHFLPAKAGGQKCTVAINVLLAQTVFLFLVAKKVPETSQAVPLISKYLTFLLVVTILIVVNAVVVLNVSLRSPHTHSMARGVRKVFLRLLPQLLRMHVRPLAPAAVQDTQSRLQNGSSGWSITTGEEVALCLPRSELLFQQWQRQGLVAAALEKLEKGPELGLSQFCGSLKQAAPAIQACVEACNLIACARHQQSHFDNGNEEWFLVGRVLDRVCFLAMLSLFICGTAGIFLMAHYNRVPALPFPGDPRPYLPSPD
assay method text: CEREP panel
Type: binding
assay setup: 10 µM
For each entry below, report its % inhibition N muscle-type (h) value.
Numbers only, in %.

compound	target	result unit	% inhibition N muscle-type (h)
COc1ccc(C(=O)c2c(C)n(CCN3CCOCC3)c3cc(I)ccc23)cc1	N muscle-type (h) (Homo sapiens, UniProt P02708+P07510+P11230+Q07001)	%	5
Cc1c(C(=O)c2cccc3ccccc23)c2cccc3c2n1[C@H](CN1CCOCC1)CO3	N muscle-type (h) (Homo sapiens, UniProt P02708+P07510+P11230+Q07001)	%	7
Cc1c(C(=O)NN2CCCCC2)nn(-c2ccc(Cl)cc2Cl)c1-c1ccc(I)cc1	N muscle-type (h) (Homo sapiens, UniProt P02708+P07510+P11230+Q07001)	%	12
CCCn1c(C)c(C(=O)c2cccc3ccccc23)c2ccccc21	N muscle-type (h) (Homo sapiens, UniProt P02708+P07510+P11230+Q07001)	%	-12

Next item in the queue.
# input Quick one: % inhibition N muscle-type (h) of CN1CCCC[C@H]1Cn1cc(C(=O)c2cc([N+](=O)[O-])ccc2I)c2ccccc21 [(S)-AM1241] ?
# output 38

---

Consider the following compounds; for each one, report its Emax ± SEM cAMP hCB2R.
target: hCB2R (Homo sapiens, UniProt P34972)
Sequence (P34972 whole entry): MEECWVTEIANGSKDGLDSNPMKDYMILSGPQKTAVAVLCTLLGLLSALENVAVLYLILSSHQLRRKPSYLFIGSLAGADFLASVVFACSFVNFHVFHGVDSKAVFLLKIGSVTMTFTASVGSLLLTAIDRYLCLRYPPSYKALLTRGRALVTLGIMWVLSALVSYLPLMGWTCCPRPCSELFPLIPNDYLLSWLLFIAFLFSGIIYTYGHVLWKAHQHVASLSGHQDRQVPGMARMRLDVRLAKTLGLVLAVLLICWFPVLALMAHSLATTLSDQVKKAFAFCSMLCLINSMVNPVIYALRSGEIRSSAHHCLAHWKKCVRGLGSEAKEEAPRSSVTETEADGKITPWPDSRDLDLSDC
assay method text: cell-based
Assay type: cell-based
Parameters: expressed in transfected cells; host or cells: Flp-In-293 (Invitrogen #R750-07), pcDNA5/FRT
Answers are plain numbers.

Would you please look over these solved cases?
compound	Emax ± SEM cAMP hCB2R
CN1CCCCC1Cn1cc(C(=O)c2cc([N+](=O)[O-])ccc2I)c2ccccc21 (racemic) [(rac)-AM1241]	67
CCCC(C)(C)c1ccc2c(c1)OC(C)(C)[C@@H]1CC=C(C)C[C@@H]21 [JWH133]	98
Cc1c(C(=O)NN2CCCCC2)nn(-c2ccc(Cl)cc2Cl)c1-c1ccc(I)cc1 [AM251]	-175
COc1ccc(C(=O)c2c(C)n(CCN3CCOCC3)c3cc(I)ccc23)cc1 [AM630]	-152
CN1CCCC[C@@H]1Cn1cc(C(=O)c2cc([N+](=O)[O-])ccc2I)c2ccccc21 [(R)-AM1241]	65

# input Reported Emax ± SEM cAMP hCB2R, compound CN1CCCC[C@H]1Cn1cc(C(=O)c2cc([N+](=O)[O-])ccc2I)c2ccccc21 [(S)-AM1241] : ____
# output 78

---

assay setup: i.v., mice
Provide the recorded T1/2 for the entries that follow.
Give bare numbers, in h.

Would you mind listing T1/2 for each of the following compounds?
1. CN1CCCC[C@H]1Cn1cc(C(=O)c2cc([N+](=O)[O-])ccc2I)c2ccccc21 [(S)-AM1241]
2. CCCn1c(C)c(C(=O)c2cccc3ccccc23)c2ccccc21
3. COc1ccc(C(=O)c2c(C)n(CCN3CCOCC3)c3cc(I)ccc23)cc1
4. Cc1ccc2c(c1)Cc1c(C(=O)NN3CCCCC3)nn(-c3ccc(Cl)cc3Cl)c1-2

# output
1: 1.4; 2: 2.6; 3: 2.9; 4: 3.5

---

Give measured ΔLogR cAMP for each item. Keep answers brief.
target: mCB2R (Mus musculus, UniProt P47936)
Sequence (P47936 whole entry): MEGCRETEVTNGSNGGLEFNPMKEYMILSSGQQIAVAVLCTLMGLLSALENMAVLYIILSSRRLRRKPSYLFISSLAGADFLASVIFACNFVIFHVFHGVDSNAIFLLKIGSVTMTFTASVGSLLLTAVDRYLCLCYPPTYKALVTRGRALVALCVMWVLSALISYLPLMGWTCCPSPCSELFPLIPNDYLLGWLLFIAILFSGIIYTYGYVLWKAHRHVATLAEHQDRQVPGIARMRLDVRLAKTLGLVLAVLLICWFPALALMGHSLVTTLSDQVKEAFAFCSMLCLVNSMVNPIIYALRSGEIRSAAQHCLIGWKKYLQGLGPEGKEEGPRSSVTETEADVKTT
assay method text: Operational analysis of biased signalling
assay setup: reference CP55940
One number for each entry.

compound	target	ΔLogR cAMP
CCCCCCC(C)(C)c1cc(OC)c(C2=C[C@H]3CC[C@]2(CO)C3(C)C)c(OC)c1 [HU910]	mCB2R (Mus musculus, UniProt P47936)	-2.04
CCCC(C)(C)c1ccc2c(c1)OC(C)(C)[C@@H]1CC=C(C)C[C@@H]21 [JWH133]	mCB2R (Mus musculus, UniProt P47936)	-2.45
CCCCCCC(C)(C)c1ccc([C@@H]2C[C@H](O)CC[C@H]2CCCO)c(O)c1 [CP55940]	mCB2R (Mus musculus, UniProt P47936)	0

The record that follows has no ΔLogR cAMP shown yet.
# input So what does the record say about ΔLogR cAMP for CCCCCCC(C)(C)c1cc(OC)c([C@@H]2C=C(CO)[C@@H]3C[C@H]2C3(C)C)c(OC)c1 [HU308] ?
# output -2.46

---

target: AT1 (h) (Homo sapiens)
Construct: CEREP
Sequence (P30556 whole entry): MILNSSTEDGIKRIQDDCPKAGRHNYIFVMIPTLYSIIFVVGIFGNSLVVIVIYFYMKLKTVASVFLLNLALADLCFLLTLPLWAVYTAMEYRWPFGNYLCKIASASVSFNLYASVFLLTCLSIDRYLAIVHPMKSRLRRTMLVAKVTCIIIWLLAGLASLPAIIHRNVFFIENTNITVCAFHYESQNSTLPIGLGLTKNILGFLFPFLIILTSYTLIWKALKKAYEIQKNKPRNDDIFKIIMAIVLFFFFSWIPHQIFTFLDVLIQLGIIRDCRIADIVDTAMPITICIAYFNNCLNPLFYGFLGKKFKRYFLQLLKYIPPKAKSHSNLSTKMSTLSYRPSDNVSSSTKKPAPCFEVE
assay method text: CEREP panel
Format: binding
assay setup: 10 µM
endpoint label: % inhibition AT1 (h) (%)
One number for each entry, in %.

Consider the worked cases shown below.
compound	reported result
CN1CCCC[C@H]1Cn1cc(C(=O)c2cc([N+](=O)[O-])ccc2I)c2ccccc21 [(S)-AM1241]	1
CCCn1c(C)c(C(=O)c2cccc3ccccc23)c2ccccc21	21
Cc1c(C(=O)NN2CCCCC2)nn(-c2ccc(Cl)cc2Cl)c1-c1ccc(I)cc1	36
COc1ccc(C(=O)c2c(C)n(CCN3CCOCC3)c3cc(I)ccc23)cc1	17
Cc1ccc2c(c1)Cc1c(C(=O)NN3CCCCC3)nn(-c3ccc(Cl)cc3Cl)c1-2	20
CCCCCCC(C)(C)c1cc(OC)c(C2=C[C@H]3CC[C@]2(CO)C3(C)C)c(OC)c1	37
CCCC(C)(C)c1ccc2c(c1)OC(C)(C)[C@@H]1CC=C(C)C[C@@H]21	7

Now consider the entry below.
# input If you can, please state the reported % inhibition AT1 (h) value of Cc1c(C(=O)c2cccc3ccccc23)c2cccc3c2n1[C@H](CN1CCOCC1)CO3 .
# output 29

---

assay method text: Pharmacokinetics, oral administration in mice
Format: in vivo, mouse
assay setup: male, C57BL/6J or C57BL/6JRj, mouse, plasma, po, 5 mg/kg, p.o., read-out: Tmax
endpoint label: Tmax (min)
Give bare numbers, in min.

# input Tmax lookup needed for CCCCCCC(C)(C)c1cc(OC)c([C@@H]2C=C(CO)[C@@H]3C[C@H]2C3(C)C)c(OC)c1 , thanks.
# output 30

---

Consider the following molecules; for each one, report its IC50.
target: Rat recombinant TRPA1 (Rattus norvegicus)
Sequence (Q6RI86 whole entry): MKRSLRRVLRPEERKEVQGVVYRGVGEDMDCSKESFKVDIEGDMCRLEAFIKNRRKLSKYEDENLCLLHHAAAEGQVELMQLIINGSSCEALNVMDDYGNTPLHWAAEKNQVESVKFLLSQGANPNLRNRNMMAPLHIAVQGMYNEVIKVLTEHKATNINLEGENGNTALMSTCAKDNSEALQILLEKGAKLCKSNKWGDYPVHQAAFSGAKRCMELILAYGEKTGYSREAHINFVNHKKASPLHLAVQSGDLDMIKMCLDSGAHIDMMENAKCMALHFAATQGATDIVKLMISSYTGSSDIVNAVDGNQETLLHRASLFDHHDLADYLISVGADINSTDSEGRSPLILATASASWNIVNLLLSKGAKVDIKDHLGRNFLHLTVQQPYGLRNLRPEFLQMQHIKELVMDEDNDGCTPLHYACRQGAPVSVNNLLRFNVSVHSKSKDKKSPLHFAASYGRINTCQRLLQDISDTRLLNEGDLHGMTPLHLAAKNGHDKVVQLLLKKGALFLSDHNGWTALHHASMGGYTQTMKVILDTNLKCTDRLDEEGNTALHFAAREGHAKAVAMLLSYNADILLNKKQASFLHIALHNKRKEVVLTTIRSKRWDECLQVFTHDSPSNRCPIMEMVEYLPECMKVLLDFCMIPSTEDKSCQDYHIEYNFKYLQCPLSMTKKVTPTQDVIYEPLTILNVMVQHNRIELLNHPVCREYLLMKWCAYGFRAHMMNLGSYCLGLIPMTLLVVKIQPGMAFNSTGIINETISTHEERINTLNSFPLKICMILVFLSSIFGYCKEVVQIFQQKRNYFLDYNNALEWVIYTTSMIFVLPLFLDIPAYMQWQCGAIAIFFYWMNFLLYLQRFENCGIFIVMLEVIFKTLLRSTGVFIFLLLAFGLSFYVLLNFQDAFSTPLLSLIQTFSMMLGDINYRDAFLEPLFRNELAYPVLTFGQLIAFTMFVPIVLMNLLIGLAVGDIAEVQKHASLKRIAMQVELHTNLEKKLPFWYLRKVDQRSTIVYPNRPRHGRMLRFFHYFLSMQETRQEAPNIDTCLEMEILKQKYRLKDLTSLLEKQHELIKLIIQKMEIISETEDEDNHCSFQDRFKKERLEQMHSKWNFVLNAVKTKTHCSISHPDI
assay method text: cell-based
assay setup: vs AITC 100μM, 5 min pre-incubation; read-out: TRPA1 IC50 for antagonism or desensitization
Give bare numbers, in µM.

Would you please look over these solved cases?
molecule	result unit	reported result
CCCC(C)(C)c1ccc2c(c1)OC(C)(C)[C@@H]1CC=C(C)C[C@@H]21	µM	20
Cc1c(C(=O)c2cccc3ccccc23)c2cccc3c2n1[C@H](CN1CCOCC1)CO3	µM	6.4
COc1ccc(C(=O)c2c(C)n(CCN3CCOCC3)c3cc(I)ccc23)cc1	µM	3.7

Hi, could you look up IC50 for each item in my list?
1. Cc1ccc2c(c1)Cc1c(C(=O)NN3CCCCC3)nn(-c3ccc(Cl)cc3Cl)c1-2
2. CN1CCCC[C@H]1Cn1cc(C(=O)c2cc([N+](=O)[O-])ccc2I)c2ccccc21 [(S)-AM1241]

# output
10.4
40.9

# input Which value of IC50 has been reported for Cc1c(C(=O)NN2CCCCC2)nn(-c2ccc(Cl)cc2Cl)c1-c1ccc(Cl)cc1 [SR141716A] in the records?
# output 12.5
